The entries below come with measured melting point values attached.

Answered examples (4):
Molecule	melting point
CC(C)(O)CCOc1c(-c2ccc(S(C)(=O)=O)cc2)cnn(-c2ccc(F)c(Cl)c2)c1=O [Example 473]	108 to 110 °C
CC(=O)CCOc1c(-c2ccc(S(C)(=O)=O)cc2)cnn(-c2ccc(F)cc2)c1=O [Example 468]	133 to 136 °C
CS(=O)(=O)c1ccc(-c2cnn(CC(F)(F)F)c(=O)c2NCCCO)cc1 [Example 305]	152 to 154 °C
CC(C)(C)COc1c(-c2ccc(S(N)(=O)=O)c(F)c2)cnn(CC(F)(F)F)c1=O [Example 381]	144 to 145 °C

Turning now to a further molecule:
Query: Find the measured melting point of CS(=O)(=O)c1ccc(-c2cnn(Cc3ccccc3)c(=O)c2-c2ccc(Cl)cc2)cc1 [Example 53] and report it.
Reply: 157 to 159 °C

----------
# System name: recombinant human Cox-1 (r-hu Cox1) (Homo sapiens)
# Construct: made in house; host or cells: baculovirus/Sf9 insect cells (microsomes)
# Sequence (P23219 24-599): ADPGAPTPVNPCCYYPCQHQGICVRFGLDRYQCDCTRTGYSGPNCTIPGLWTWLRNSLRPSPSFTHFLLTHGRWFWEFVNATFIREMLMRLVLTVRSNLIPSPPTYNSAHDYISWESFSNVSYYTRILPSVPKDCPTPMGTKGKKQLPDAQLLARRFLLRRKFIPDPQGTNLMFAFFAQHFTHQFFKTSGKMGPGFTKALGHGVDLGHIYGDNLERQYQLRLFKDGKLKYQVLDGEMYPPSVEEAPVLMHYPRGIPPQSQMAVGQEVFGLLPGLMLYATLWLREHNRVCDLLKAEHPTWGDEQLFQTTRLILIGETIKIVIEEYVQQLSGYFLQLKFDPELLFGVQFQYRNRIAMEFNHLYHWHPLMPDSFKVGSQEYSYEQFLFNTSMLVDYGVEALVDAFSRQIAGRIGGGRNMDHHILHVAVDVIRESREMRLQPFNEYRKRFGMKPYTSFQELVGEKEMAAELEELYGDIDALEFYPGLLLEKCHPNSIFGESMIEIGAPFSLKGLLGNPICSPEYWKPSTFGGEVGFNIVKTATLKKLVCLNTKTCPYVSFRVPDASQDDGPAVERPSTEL
# Assay notes: Recombinant human PGHS-1 enzyme assay (RHUCX1)
# Type: biochemical
# Test settings: 100 μM
Parameter: RHUCX1 % Inh. at Dose (μM)

Examples from the recorded data:
Compound	System name	RHUCX1 % Inh. at Dose (μM)
CC1CCC(n2ncc(-c3ccc(S(C)(=O)=O)cc3)c(-c3ccc(F)cc3)c2=O)C1 (centres unmarked)	recombinant human Cox-1 (r-hu Cox1) (Homo sapiens)	23 @ 100%
CS(=O)(=O)c1ccc(-c2cnn(CC(=O)c3ccc(F)cc3F)c(=O)c2-c2ccc(F)cc2)cc1	recombinant human Cox-1 (r-hu Cox1) (Homo sapiens)	13 @ 100%

Query: Provide only the value of recorded RHUCX1 % Inh. at Dose (μM) for CS(=O)(=O)c1ccc(-c2cnn(-c3ccc(F)cc3)c(=O)c2C#Cc2ccccc2)cc1
Reply: 7 @ 100%

Query: Supply RHUCX1 % Inh. at Dose (μM) value. Item: CC(C)=CCCOc1c(-c2ccc(S(N)(=O)=O)cc2)cnn(-c2ccc(F)c(F)c2)c1=O
Reply: 48 @ 100%

Query: Give RHUCX1 % Inh. at Dose (μM) for CS(=O)(=O)c1ccc(-c2cnn(-c3cc(F)cc(F)c3)c(=O)c2-c2ccc(F)cc2)cc1
Reply: 8 @ 100%

Query: Provide RHUCX1 % Inh. at Dose (μM) value for the following compound: CS(=O)(=O)c1ccc(-c2cnn(Cc3ccccc3)c(=S)c2-c2ccc(F)cc2)cc1
Reply: 20 @ 100%

Query: Note down RHUCX1 % Inh. at Dose (μM) recorded for CS(=O)(=O)c1ccc(-c2cnn(-c3cccc(Br)c3)c(=O)c2Oc2ccc(F)cc2)cc1
Reply: 5 @ 100%

Query: Determine from records and report RHUCX1 % Inh. at Dose (μM) for C=C(C)Cn1ncc(-c2ccc(S(C)(=O)=O)cc2)c(-c2ccc(F)cc2)c1=O
Reply: 0 @ 100%

----------
# System name: human amnionic whole cell cyclooxygenase-2 (WISH cells) (Homo sapiens)
# Construct: endogenous in cells; host or cells: human amnionic WISH cells, induced with IL-1beta
# Sequence (P35354 18-604): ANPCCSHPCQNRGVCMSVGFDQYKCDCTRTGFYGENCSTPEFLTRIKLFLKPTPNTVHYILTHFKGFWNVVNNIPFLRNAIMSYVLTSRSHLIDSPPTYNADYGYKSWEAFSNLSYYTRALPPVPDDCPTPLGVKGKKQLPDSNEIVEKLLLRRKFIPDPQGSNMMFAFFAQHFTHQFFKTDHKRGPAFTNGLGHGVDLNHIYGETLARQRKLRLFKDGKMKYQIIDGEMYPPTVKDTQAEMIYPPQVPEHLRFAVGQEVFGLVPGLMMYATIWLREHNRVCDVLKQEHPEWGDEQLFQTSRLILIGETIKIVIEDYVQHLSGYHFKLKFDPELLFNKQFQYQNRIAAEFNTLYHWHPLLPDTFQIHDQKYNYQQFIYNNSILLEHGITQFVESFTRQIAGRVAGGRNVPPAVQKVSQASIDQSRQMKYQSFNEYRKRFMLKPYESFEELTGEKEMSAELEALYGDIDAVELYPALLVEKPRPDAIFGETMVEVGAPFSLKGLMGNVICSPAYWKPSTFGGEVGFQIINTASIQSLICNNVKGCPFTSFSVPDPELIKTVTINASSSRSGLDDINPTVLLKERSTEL
# Assay notes: IL-1β induced PGE2 production in WISH cells
# Type: cell-based
# Test settings: 1 μM; read-out: Wish % Inhib. at Dose
Parameter: inhibition at 1 µM (%)

Worked examples follow.
Structure smiles string	inhibition at 1 µM [%]
CS(=O)(=O)c1ccc(-c2cnn(-c3cccc(Cl)c3)c(=O)c2Sc2ccccn2)cc1	69
CC(C)Nc1c(-c2ccc(S(C)(=O)=O)cc2)cnn(CC(F)(F)F)c1=O	52
CS(=O)(=O)c1ccc(-c2cnn(CC(F)(F)F)c(=O)c2OCc2ccco2)cc1	52
CC(C)Oc1c(-c2ccc(S(C)(=O)=O)cc2)cnn(-c2cccc(Br)c2)c1=O	77

[1] CC(C)CCCOc1c(-c2ccc(S(C)(=O)=O)cc2)cnn(-c2ccc(F)cc2)c1=O
[2] CS(=O)(=O)c1ccc(-c2cnn(-c3ccc(F)c(F)c3)c(=O)c2Cc2ccc(F)cc2)cc1
Query: Would you let me know which has the greater inhibition at 1 µM value, 1 or 2 ? Use the label to indicate which entry you chose.
Reply: 2
(2: 90%, 1: 54%)

----------
# System name: recombinant human Cox-2 (r-hu Cox-2) (Homo sapiens)
# Construct: made in house; host or cells: baculovirus/Sf9 insect cells (microsomes)
# Assay notes: Recombinant human PGHS-2 enzyme assay (RHUCX2)
# Type: biochemical
# Test settings: 0.1 μM; read-out: RHUCX2 % Inh. at Dose
Parameter: inhibition at 0.1 µM (%)

Recorded inhibition at 0.1 µM, per entry:
Compound	Readout units	inhibition at 0.1 µM
CON=C(Cn1ncc(-c2ccc(S(C)(=O)=O)cc2)c(-c2ccc(F)cc2)c1=O)c1ccccc1 [Example 443]	%	86
CS(=O)(=O)c1ccc(-c2cnn(Cc3c(F)c(F)c(F)c(F)c3F)c(=O)c2-c2ccc(F)cc2)cc1 [Example 45]	%	63
CS(=O)(=O)c1ccc(-c2cnn(Cc3ccccc3C(F)(F)F)c(=O)c2-c2ccc(F)cc2)cc1 [Example 25]	%	66
COc1c(F)cc(-c2c(-c3ccc(S(C)(=O)=O)cc3)cnn(CC(F)(F)F)c2=O)cc1F [Example 220]	%	90
NS(=O)(=O)c1ccc(-c2cnn(Cc3ccccc3)c(=O)c2-c2ccc(F)cc2)cc1 [Example 384]	%	78
CS(=O)(=O)c1ccc(-c2cnn(-c3ccc(F)cc3)c(=O)c2N2CCCCC2)cc1 [Example 355]	%	46

[I] CC(C)CCc1c(-c2ccc(S(N)(=O)=O)cc2)cnn(-c2ccc(F)c(F)c2)c1=O [Example 404]
[II] CS(=O)(=O)c1ccc(-c2cnn(CC(F)(F)F)c(=O)c2-c2ccc(Cl)c(Cl)c2)cc1 [Example 81]
Query: Looking only at measured inhibition at 0.1 µM, which entry is lower, I or II ? Your answer should be the label of the entry you select.
Reply: II
(II: 44%, I: 92%)

[A] CS(=O)(=O)c1ccc(-c2cnn(-c3cccc(Cl)c3)c(=O)c2COc2ccc(F)cc2)cc1 [Example 207]
[B] CS(=O)(=O)c1ccc(-c2cnn(-c3cccc(Cl)c3)c(=O)c2OCC2CC2)cc1 [Example 418]
Query: Form field 'greater inhibition at 0.1 µM' accepts A or B ; which applies? Answer = label.
Reply: A
(A: 81%, B: 52%)

----------
# System name: recombinant human Cox-2 (r-hu Cox-2) (Homo sapiens, UniProt P35354)
# Construct: made in house; host or cells: baculovirus/Sf9 insect cells (microsomes)
# Assay notes: Recombinant human PGHS-2 enzyme assay (RHUCX2)
# Format: biochemical
# Test settings: 1 μM; read-out: RHUCX2 % Inh. at Dose
Parameter: inhibition at 1 µM (%)

Compound	System name	Parameter	Assay result
CS(=O)(=O)c1ccc(-c2cnn(Cc3ccccc3)c(=O)c2-c2ccc(F)c(Cl)c2)cc1	recombinant human Cox-2 (r-hu Cox-2) (Homo sapiens, UniProt P35354)	inhibition at 1 µM	99
CS(=O)(=O)c1ccc(-c2cnn(-c3ccc(F)c(F)c3)c(=O)c2OCCC2C=CCC2)cc1 (centres unmarked)	recombinant human Cox-2 (r-hu Cox-2) (Homo sapiens, UniProt P35354)	inhibition at 1 µM	84
CS(=O)(=O)c1ccc(-c2cnn(-c3ccc(F)c(F)c3)c(=O)c2Oc2ccc(Cl)cc2)cc1	recombinant human Cox-2 (r-hu Cox-2) (Homo sapiens, UniProt P35354)	inhibition at 1 µM	71
CC(C)CSCc1c(-c2ccc(S(C)(=O)=O)cc2)cnn(-c2ccc(F)cc2)c1=O	recombinant human Cox-2 (r-hu Cox-2) (Homo sapiens, UniProt P35354)	inhibition at 1 µM	68
CS(=O)(=O)c1ccc(-c2cnn(-c3cccc(Cl)c3)c(=O)c2COc2ccc(F)cc2)cc1	recombinant human Cox-2 (r-hu Cox-2) (Homo sapiens, UniProt P35354)	inhibition at 1 µM	97

Values compiled from patent US20020028938A1.
